All values here come from paper PMC5540273.

tested on: DCAMKL3; construct: gene DCLK3; details: concentration: 1 μM,replicates: in singlicate; n = 1;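 also: KINOMEscan kinase panel screen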
Decision: %Inh beneath 50% gives 1.0; %Inh meeting or exceeding 50% gives 0.0.

> print(dat)
                                    molecule  class
 1  O=C(NCCCN1CCOC1=O)c1cnc(NCc2cc(Cl)ccc2Cl)nc1NC1CCCC1    1.0
 2  CCN(CC)CCCCNc1ncc2cc(-c3c(Cl)cccc3Cl)c(NC(=O)NC(C)(C)C)nc2n1    1.0
 3  Nc1nc(Nc2ccccc2)cc(-c2ccc3c(N)n[nH]c3c2)n1    0.0
 4  Cl.Cl.Nc1nc(-c2ccc3c(N)n[nH]c3c2)cc(N2CCCC(NC(=O)c3ccccc3)C2)n1 (stereo not drawn)    1.0
 5  Cl.Oc1cc(-c2nc(-c3ccccc3)[nH]c2-c2ccncc2)ccc1Cl    1.0
 6  Cc1n[nH]c2ccc(-c3cc(OC[C@@H](N)Cc4ccccc4)cnc3-c3ccoc3)cc12.O=C(O)C(F)(F)F.O=C(O)C(F)(F)F    1.0
 7  Cl.Cl.NC[C@H](CC1CCCCC1)NC(=O)c1cc(Br)c(-c2ccnc3[nH]ccc23)s1    1.0
 8  CN(C)CC(O)COc1ccc(Nc2nccc(-c3cnn4nc(N5CCOCC5)ccc34)n2)cc1 (stereo not drawn)    0.0
 9  C[C@@H](Oc1cc(-c2cnn(C3CCNCC3)c2)cnc1N)c1c(Cl)ccc(F)c1Cl    1.0
10  C[C@@H]1CCN(C(=O)CC#N)C[C@@H]1N(C)c1ncnc2[nH]ccc12    0.0

Task: Does the reported %Inh of Cl.Cl.NC[C@H](Cc1ccc(C(F)(F)F)cc1)NC(=O)c1cc(Br)c(-c2ccnc3[nH]ccc23)s1 stay below 50%?
Output: 0.0
